Measured log10(IC50) accompanies every entry in the list below.
TARGET_OF_ASSAY: BRD4-BD1 (Homo sapiens (Human), UniProt O60885)
ASSAY_PROTOCOL: AlphaLisa bromodomain binding assay, BRD4-BD1
MEASUREMENT_SETUP: Table 6; read-out: BRD4(1) IC50
VALUE_TYPE: log10(IC50) (log10 of the value in nM)

MOLECULE	log10(IC50)
CNC(=O)N1CCN(c2ccc(Nc3ncc4ccn(-c5cccc(NS(=O)(=O)C(C)(C)C)c5)c4n3)cc2)CC1	3.51
CNC1CCN(C(=O)c2ccc(Nc3ncc4scc(-c5cccc(NS(=O)(=O)C(C)(C)C)c5)c4n3)cc2F)CC1	2.47
CC(C)(C)S(=O)(=O)Nc1cccc(Nc2nc(NCC3CCNCC3)nc3sccc23)c1 [drawing 220]	3.43
CC(C)(C)S(=O)(=O)Nc1cccc(Nc2nc(NC3CCNC3)nc3sccc23)c1 (centres unmarked) [drawing 222]	3.38
O=C1NCCc2c1ccn2-c1cnc(Nc2ccccc2)nc1	3.25
CN1CCN(c2ccc(Nc3ncc4ccn(-c5cccc(NC(=O)C(C)(C)C)c5)c4n3)cc2)CC1	4.00
COc1cc(Nc2ncc3ccn(-c4cccc(NS(=O)(=O)C(C)(C)C)c4)c3n2)ccc1N1CCN(C)CC1	2.63
Cc1cnc(Nc2ccc(N3CCN(C)CC3)cc2)nc1Nc1cccc(NS(=O)(=O)C(C)(C)C)c1 [drawing 281]	2.36
CN1CCC(Nc2nc(Nc3ccc4c(c3)N(S(=O)(=O)C(C)(C)C)CC4)c3ccsc3n2)CC1 [drawing 204]	2.20
CCC1(S(=O)(=O)Nc2cc(-n3ccc4cnc(Nc5ccc(N6CCC(N(C)C)CC6)c(F)c5)nc43)ccc2F)CC1	2.98
CC(C)(C)S(=O)(=O)Nc1cccc(Nc2nc(NC3CC4CC3CN4)nc3sccc23)c1 (centres unmarked)	2.41
CN1CCC(Nc2nc(Nc3ccc(Cl)c(NS(=O)(=O)C(C)(C)C)c3)c3sccc3n2)CC1	2.95
Cc1cnc(Nc2ccc(OCCN3CCCC3)cc2)nc1Nc1cccc(NS(=O)(=O)C(C)(C)C)c1	2.62
CC(C)(C)S(=O)(=O)Nc1cc(-c2csc3cnc(Nc4ccc(N5CCNCC5)c(F)c4)nc23)ccc1F	2.21
CC(C)(C)S(=O)(=O)N1CCc2ccc(Nc3nc(Nc4cccnc4)nc4c3COC4)cc21	3.56
CN(C)C1CCN(c2ccc(Nc3ncc4scc(-c5ccc(F)c(NS(=O)(=O)C(C)(C)C)c5)c4n3)cc2F)CC1	2.03
CNCCNC(=O)Cc1ccc(Nc2ncc3ccn(-c4ccc(F)c(NS(=O)(=O)C(C)(C)C)c4)c3n2)cc1	2.29

// provenance: patent US11279703B2
